The measured values listed here are drawn from PubChem BioAssay (NCATS).

- test method notes: Cellular Toxicity (caspase-3) HepG2 (AID 654);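 on caspase-3 activation: cells exposed to compound for 16 hours before reading; 0% = DMSO alone and 100% = caspase signal from 100 µM tamoxifen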
- test settings: HepG2 caspase-3 activation, luminescence; series mostly up to 92.2 µM
Active and inactive are the calls of the source. The call rests on the fitted dose curve; in most records, active means well fitted activation curve with a large enough effect; inconclusive means small, poorly fitted or top-dose-only effect; inactive means flat fitted curve, though single readings scatter.
Reply using exactly one outcome from True (active), False (inactive)

Example entries begin here.
O=C=Nc1ccc(Cc2ccc(N=C=O)cc2)cc1 :: False
Oc1ccc2cc(SSc3ccc4cc(O)ccc4c3)ccc2c1 :: False
Cc1cc(Nc2ccc(O)cc2)ccc1N :: False
O=[N+]([O-])c1cc([N+](=O)[O-])c2ccc(S(=O)(=O)O)cc2c1O :: False
CCCCCC/C(C=O)=C\c1ccccc1 :: False

Q: Record request — test call for CC(=O)Nc1ccc(C(=O)CCl)cc1
A: False

Q: Record request — test call for O=C1OC2(c3cc(Br)c(O)c(Br)c3Oc3c2cc(Br)c(O)c3Br)c2c(Cl)c(Cl)c(Cl)c(Cl)c21
A: False

Q: Record request — test call for CC/C(=C(\c1ccccc1)c1ccc(OCCN(C)C)cc1)c1ccc(O)cc1
A: True

Q: Record request — test call for Cc1ccc(S(=O)(=O)Oc2ccc(N=Nc3ccc(-c4ccc(N=Nc5c(O)ccc6cc(S(=O)(=O)O)cc(S(=O)(=O)O)c56)c(C)c4)cc3C)cc2)cc1
A: False

Q: Record request — test call for CN(C)c1ccc(C2(c3ccc(N(C)C)cc3)OC(=O)c3cc(N(C)C)ccc32)cc1
A: False

Q: Record request — test call for O=C(/C=C/c1ccc(O)c(O)c1)OC1C[C@](O)(C(=O)O)C[C@@H](O)[C@H]1O (stereo not given in full)
A: False

Q: Record request — test call for C/C=C1\C(=O)C[C@H]2[C@@H]3CCC4=CC(=O)CC[C@]4(C)[C@H]3CC[C@]12C
A: False

---

- test method notes: Stat Signaling Pathway (AID 446);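 further: ME-180 cervical cancer cells given 40 pM IL-6 alongside compound; SIE-controlled beta-lactamase reporter measured as 460/530 nm FRET emission ratio; on the % scale 0 is the no-effect control and ±100 the full control effect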
- test settings: ME-180 (cervical carcinoma) SIE beta-lactamase reporter, IL-6 stimulated, 5 h; at 17.2 µM (top of the series) unless noted
Results filed as inconclusive are left out.
Recorded measurements of activity, negative = inhibition, one per entry
Give your result in % as a bare value.

Consider the following illustrative entries.
CN=C(c1ccco1)n1c(=S)nc(-c2ccco2)n(C)c1=S :: 15.6
CN(CCNC(=O)c1ccc(/C=N/O)nc1)Cc1ccccc1 :: -0.957
Nc1ccc2oc(-c3ccccc3Cl)nc2c1 :: 2.57
Clc1ccccc1-c1nnc2sc(-c3ccco3)nn12 :: 0.557

# compound COc1ccc(C2=Nn3c(nnc3-c3ccccc3)SC2)cc1OC ; its activity, negative = inhibition = 3.68

# compound CCCCOc1ccc(C(=O)NCC(=O)NCC(=O)OCC)cc1 ; its activity, negative = inhibition = -5.03

---

- Test system: CP194
- test method notes: qHTS profiling for inhibitors of Plasmodium falciparum proliferation (AID 504749); further: nearly all actives have a fitted effect of over 60% in size
- test settings: P. falciparum in erythrocytes, SYBR Green DNA, 72 h; series mostly up to 28.7 µM
Inconclusive results are not listed. The source made the active and inactive calls. The call rests on the fitted dose curve; in most records, active means well fitted inhibition curve with a large enough effect; inconclusive means small, poorly fitted or top-dose-only effect; inactive means flat fitted curve, though single readings scatter.
Reply using exactly one outcome from active, inactive

Q: Record request — test call for CCC(C(=O)C(C)C(O)C(C)CCc1ccc(C)c(O)c1C(=O)O)C1OC(CC)(C2CC[C@@](O)(CC)C(C)O2)CC1C (stereo partly drawn)
A: active

Q: Record request — test call for CC[C@H](C)[C@H]1O[C@]2(CC[C@@H]1C)C[C@@H]1C[C@@H](C/C=C(\C)[C@H](O[C@@H]3C[C@H](OC)[C@H](O[C@@H]4C[C@H](OC)[C@@H](O)[C@H](C)O4)[C@H](C)O3)[C@@H](C)/C=C/C=C3\CO[C@@H]4[C@H](O)C(C)=C[C@@H](C(=O)O1)[C@]34O)O2
A: active

Q: Record request — test call for CCCCC(=O)OCC(=O)[C@]1(O)Cc2c(O)c3c(c(O)c2[C@H](OC2CC(NC(=O)C(F)(F)F)C(O)C(C)O2)C1)C(=O)c1c(OC)cccc1C3=O (stereo partly drawn)
A: active

Q: Record request — test call for CC(C)(C)NC[C@H](O)CSc1nc(-c2ccc(C(N)=O)s2)cs1
A: inactive

Q: Record request — test call for OCC1OC(O)C(O)C(O)C1O (stereo not drawn)
A: inactive

Q: Record request — test call for CCCC[C@H]1C(=O)N(c2ccccc2)N(c2ccc(O)cc2)C1=O
A: inactive

Q: Record request — test call for O=c1[nH]c(=O)n(C2C[C@H](O)[C@@H](CO)O2)cc1C(F)(F)F (stereo partly drawn)
A: inactive

Q: Record request — test call for NC(=O)C1CC2(NC(=O)NC2=O)c2cc(F)ccc2O1 (stereo not drawn)
A: inactive
